Biological target: UniProt:P49840
Test: GSK3α TR-FRET kinase assay
Type: biochemical
Conditions: GSK3-A (TR-FRET 1 mM ATP); GMean; IC50, 1 mM ATP; geometric mean
Experimental: TR-FRET Assay: The assay was performed in a white, 384 well, low volume, flat bottom plate (Grenier). After a 30 minute preincubation in assay buffer with the indicated concentration of compound, the kinase activity was initiated by the addition of the substrates. […] After 60 min at room temperature the plate was read on Envision plate reader using Ex: 340 nm, Em: 615 nm and […]. The normalized 665/615 Signal ratio versus log compound concentration was analyzed by XLFIT to yield IC50 values.
Entries and their measured IC50 follow.
property: IC50

CC1(C)CC(=O)C2=C(C1)Nc1n[nH]cc1C21CCN(S(=O)(=O)c2cccc3c2OCCO3)CC1 [Compound 947464]: ≤ 100 nM
CC[C@@]1(c2ccccc2)C2=C(Nc3n[nH]cc31)[C@H](F)C(C)(C)CC2=O [Compound 957197]: > 5000 nM
CCC1(c2cccc(-c3cn(C)nc3C)c2)C2=C(Nc3n[nH]cc31)C(F)C(C)(C)CC2=O (single isomer, unassigned) [Compound 947650]: 100 to 1000 nM
Cc1ncc(S(=O)(=O)N2CCC3(CC2)C2=C(CC(C)(C)CC2=O)Nc2n[nH]cc23)o1 [Compound 947611]: 100 to 1000 nM
CC1(C)CC(=O)C2=C(C1)Nc1n[nH]cc1[C@]21CCN(S(=O)(=O)C2CCCC2)C1 [Compound 943482]: 100 to 1000 nM
CC[C@]1(c2cccc(C(F)(F)F)c2)C2=C(Nc3n[nH]cc31)c1ccccc1C2=O [Compound 949743]: ≤ 100 nM
CC1(C)CC(=O)C2=C(C1)Nc1n[nH]cc1C21CCN(S(=O)(=O)c2cccc(C#N)c2)CC1 [Compound 947254]: ≤ 100 nM
CCC1(c2cccc(C(F)(F)F)c2)C2=C(Nc3n[nH]cc31)C(F)C(C)(C)CC2=O (single isomer, unassigned) [Compound 837683]: 100 to 1000 nM
COc1cccc(S(=O)(=O)N2CCC3(CC2)C2=C(CC(C)(C)CC2=O)Nc2n[nH]cc23)c1 [Compound 901468]: 100 to 1000 nM
CC1(C)CC(=O)C2=C(C1)Nc1n[nH]cc1[C@]21CCN(S(=O)(=O)c2ccccc2F)C1 [Compound 943487]: ≤ 100 nM
CCC1(c2cccc(C(F)(F)F)c2)C2=C(CC(C)(C)NC2=O)Nc2n[nH]cc21 (centres unmarked) [Compound 913006]: 100 to 1000 nM
CC1(C)CC(=O)C2=C(C1)Nc1n[nH]cc1C21CCN(S(=O)(=O)c2ccc(F)cc2)CC1 [Compound 893311]: 100 to 1000 nM
COc1cccc(S(=O)(=O)N2CC[C@]3(C2)C2=C(CC(C)(C)CC2=O)Nc2n[nH]cc23)c1 [Compound 951789]: 100 to 1000 nM
CC1(C)CC(=O)C2=C(C1)Nc1n[nH]cc1C21CCN(S(=O)(=O)c2ccccc2OC(F)F)CC1 [Compound 945668]: ≤ 100 nM

----------
molecular target: GSK3b (GST-full length GSK3b) (Homo sapiens (Human)); assay: GSK3b TR-FRET kinase assay; format: biochemical; details: 1 nM GSK3b, 2 μM ATP, 30 minute preincubation, Table 16; read-out: GSK3-B TR-FRET BIOCHEMICAL (TR-FRET); IC50
Sequence (P49841 whole entry): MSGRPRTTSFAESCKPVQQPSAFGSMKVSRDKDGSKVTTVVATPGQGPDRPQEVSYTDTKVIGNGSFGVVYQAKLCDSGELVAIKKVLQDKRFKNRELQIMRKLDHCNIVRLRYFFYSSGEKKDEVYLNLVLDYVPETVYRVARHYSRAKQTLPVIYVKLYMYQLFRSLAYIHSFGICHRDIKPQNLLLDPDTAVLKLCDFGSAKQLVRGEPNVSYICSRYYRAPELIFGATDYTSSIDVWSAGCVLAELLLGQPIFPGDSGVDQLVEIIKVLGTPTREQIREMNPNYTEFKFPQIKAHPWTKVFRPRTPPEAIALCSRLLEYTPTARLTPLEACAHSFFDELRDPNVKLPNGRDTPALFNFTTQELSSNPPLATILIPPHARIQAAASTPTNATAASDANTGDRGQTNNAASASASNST
Entries and their measured IC50 follow.
property: IC50

CC1CC(=O)C2=C(C1)Nc1n[nH]cc1C21CCOCC1 (centres unmarked): 100 to 1000 nM
CCC1(c2cccc(S(=O)(=O)C3CCOCC3)c2)C2=C(CC(C)(C)CC2=O)Nc2n[nH]cc21 (centres unmarked): ≤ 100 nM
CCC1(c2cccc(-c3cnn(C4CC4)c3)c2)C2=C(CC(C)(C)CC2=O)Nc2n[nH]cc21 (centres unmarked): ≤ 100 nM
CCC1(c2cccc(N(C)c3ccncn3)c2)C2=C(CC(C)(C)CC2=O)Nc2n[nH]cc21 (centres unmarked): 100 to 1000 nM
CCC1(c2cccc(C(F)(F)F)c2)C2=C(CC(C)N(c3cnc(OC)nc3)C2=O)Nc2n[nH]cc21 (centres unmarked) [Compound 949351]: 100 to 1000 nM
CCC1(COCc2ccccc2)C2=C(CC(C)(C)CC2=O)Nc2n[nH]cc21 (centres unmarked): 1000 to 5000 nM
CC[C@]1(c2cccc(C3CC3)c2)C2=C(CC(C)(C)NC2=O)Nc2n[nH]cc21 [Compound 950828]: 100 to 1000 nM
CCC1(c2cccc(-c3ccnc(C)c3)c2)C2=C(CC(C)CC2=O)Nc2n[nH]cc21 (centres unmarked) [Compound 932637]: > 5000 nM

----------
biological target: GSK3α (GST-full length GSK3α) (Homo sapiens (Human), UniProt P49840); test: GSK3α TR-FRET kinase assay; type: biochemical; details: read-out: GSK3-A (TR-FRET 1 mM ATP); GMean; IC50; 1 mM ATP; geometric mean
Sequence (P49840 whole entry): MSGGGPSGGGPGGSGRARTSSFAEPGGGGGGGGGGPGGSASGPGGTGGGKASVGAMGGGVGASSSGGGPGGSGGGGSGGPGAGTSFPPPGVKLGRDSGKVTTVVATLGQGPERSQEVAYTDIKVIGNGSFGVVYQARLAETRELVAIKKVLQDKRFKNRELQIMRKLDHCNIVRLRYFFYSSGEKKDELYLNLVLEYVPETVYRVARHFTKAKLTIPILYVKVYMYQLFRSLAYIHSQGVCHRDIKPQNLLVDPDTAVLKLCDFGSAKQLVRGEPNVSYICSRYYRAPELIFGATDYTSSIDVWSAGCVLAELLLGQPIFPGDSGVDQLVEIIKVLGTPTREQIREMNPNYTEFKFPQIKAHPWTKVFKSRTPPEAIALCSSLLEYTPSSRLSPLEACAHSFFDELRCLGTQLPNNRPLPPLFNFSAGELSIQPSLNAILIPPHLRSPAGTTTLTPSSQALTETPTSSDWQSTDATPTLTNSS
Entries and their measured IC50 follow.
property: IC50

CCN(c1cccnc1)c1cccc(C2(CC)C3=C(CC(C)(C)CC3=O)Nc3n[nH]cc32)c1 (stereo not shown): 100 to 1000 nM
Cc1ccc(CC(=O)N2CC3(C2)CC2(CO3)C3=C(CC(C)(C)CC3=O)Nc3n[nH]cc32)cc1 (stereo not shown): 100 to 1000 nM
CCC1(c2cccc(-c3ccncc3Cl)c2)C2=C(CC(C)(C)NC2=O)Nc2n[nH]cc21 (stereo not shown): ≤ 100 nM
CCC1(c2cccc(S(=O)(=O)C3CCCCC3)c2)C2=C(CC(C)(C)CC2=O)Nc2n[nH]cc21 (stereo not shown): 100 to 1000 nM
CCC1(c2cccc(-c3ccnc(C)c3)c2)C2=C(CC(C)(C)NC2=O)Nc2n[nH]c(Cl)c21 (stereo not shown): 100 to 1000 nM
CC[C@]1(c2cccc(-c3ccncc3C)c2)C2=C(CC(C)(C)CC2=O)Nc2n[nH]c(C(F)(F)F)c21: ≤ 100 nM
CCC1(c2cccc(-c3c(F)cncc3OC)c2)C2=C(Nc3n[nH]cc31)C(F)C(C)(C)CC2=O (stereo not shown) [Compound 948547]: 100 to 1000 nM

----------
biological target: GSK3b (GST-full length GSK3b) (Homo sapiens (Human)); test: GSK3b TR-FRET kinase assay; format: biochemical; conditions: 1 nM GSK3b, 2 μM ATP, 30 minute preincubation, Table 16; read-out: GSK3-B TR-FRET BIOCHEMICAL (TR-FRET); IC50
pIC50: −log10 of the molar value.
property: pIC50

CC[C@]1(c2cccc(N3CCC3)c2)C2=C(CC(C)(C)CC2=O)Nc2n[nH]cc21: < 5.30
CCC1(c2cccc(-c3cn[nH]c3)c2)C2=C(CC(C)(C)CC2=O)Nc2n[nH]c(C)c21 (stereo not drawn) [Compound 913044]: 6.00 to 7.00
CC[C@H]1C[C@]2(CCO1)C1=C(CC(C)(C)CC1=O)Nc1n[nH]cc12: 5.30 to 6.00
CC[C@]1(c2cccc(C(F)(F)F)c2)C2=C(CCN(c3ccsc3)C2=O)Nc2n[nH]cc21: < 5.30
CCC1(c2cccc(N3CCCC3C)c2)C2=C(CC(C)(C)CC2=O)Nc2n[nH]cc21 (stereo not drawn) [Compound 918321]: ≥ 7.00
CCC1(c2cccc(-c3ccnc(OC)c3)c2)C2=C(CC(C)(C)CC2=O)Nc2n[nH]cc21 (stereo not drawn) [Compound 883850]: 6.00 to 7.00
CCC1(c2cccc(-c3ccnc(C)c3)c2)C2=C(CC(C)(C)CC2=O)Nc2n[nH]c(C)c21 (stereo not drawn) [Compound 913018]: ≥ 7.00
CN1CCCC2(CC1)C1=C(CC(C)(C)CC1=O)Nc1n[nH]cc12 (stereo not drawn): < 5.30
CC[C@@]1(c2cccc(-c3cnn(-c4cccnc4)c3)c2)C2=C(CC(C)(C)NC2=O)Nc2n[nH]cc21: < 5.30
CC[C@@]1(c2cccc(N(C)c3ncccn3)c2)C2=C(CC(C)(C)NC2=O)Nc2n[nH]c(Cl)c21: 5.30 to 6.00
CCC1(CCc2ccccc2)C2=C(CC(C)(C)CC2=O)Nc2n[nH]cc21 (stereo not drawn): < 5.30
CC[C@]1(c2cccc(-c3cc(C(F)(F)F)nn3C)c2)C2=C(CC(C)(C)NC2=O)Nc2n[nH]cc21: 5.30 to 6.00
CCC1(c2cccc(N(C)C(=O)c3cnn(C)c3)c2)C2=C(CC(C)(C)CC2=O)Nc2n[nH]cc21 (stereo not drawn) [Compound 913311]: ≥ 7.00
CC[C@@]1(c2cccc(-c3ccnn3-c3ccc(F)cc3)c2)C2=C(CC(C)(C)NC2=O)Nc2n[nH]cc21: < 5.30
CC[C@@]1(c2cccc(C(F)(F)F)c2)C2=C(C[C@H](C)N(c3cnc(OC)nc3)C2=O)Nc2n[nH]cc21: 5.30 to 6.00
